Origin of values: the Kinase Knowledgebase extract (Sharma et al. 2016)

Measured On: PIK3CA (human) (UniProt P42336)
Sequence (P42336 whole entry, looked up): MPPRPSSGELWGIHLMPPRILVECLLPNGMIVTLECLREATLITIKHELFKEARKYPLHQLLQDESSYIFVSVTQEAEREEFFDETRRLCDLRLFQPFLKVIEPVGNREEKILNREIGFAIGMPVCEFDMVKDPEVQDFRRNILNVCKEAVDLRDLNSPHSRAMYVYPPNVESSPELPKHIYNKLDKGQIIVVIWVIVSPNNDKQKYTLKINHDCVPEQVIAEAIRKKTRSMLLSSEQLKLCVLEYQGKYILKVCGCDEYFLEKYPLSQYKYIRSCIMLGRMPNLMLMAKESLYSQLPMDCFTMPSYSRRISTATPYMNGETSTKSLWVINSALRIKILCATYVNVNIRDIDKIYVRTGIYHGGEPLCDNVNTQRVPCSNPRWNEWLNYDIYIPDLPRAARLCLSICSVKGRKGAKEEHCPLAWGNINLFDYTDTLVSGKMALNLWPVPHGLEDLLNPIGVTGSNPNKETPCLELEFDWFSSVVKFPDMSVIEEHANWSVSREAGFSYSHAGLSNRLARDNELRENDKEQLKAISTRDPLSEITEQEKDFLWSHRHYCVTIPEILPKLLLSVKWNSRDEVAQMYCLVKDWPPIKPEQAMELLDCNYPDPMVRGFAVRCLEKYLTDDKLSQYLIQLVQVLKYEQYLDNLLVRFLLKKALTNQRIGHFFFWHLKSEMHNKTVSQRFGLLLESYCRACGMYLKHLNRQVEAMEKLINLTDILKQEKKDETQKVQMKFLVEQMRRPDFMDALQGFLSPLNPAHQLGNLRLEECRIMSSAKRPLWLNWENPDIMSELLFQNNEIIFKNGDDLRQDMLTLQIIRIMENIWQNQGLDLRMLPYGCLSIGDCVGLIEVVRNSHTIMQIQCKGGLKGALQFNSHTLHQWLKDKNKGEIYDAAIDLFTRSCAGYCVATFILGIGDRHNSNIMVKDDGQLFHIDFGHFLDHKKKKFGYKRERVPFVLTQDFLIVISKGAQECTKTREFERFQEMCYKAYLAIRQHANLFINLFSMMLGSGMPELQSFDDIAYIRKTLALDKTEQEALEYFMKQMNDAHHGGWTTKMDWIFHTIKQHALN
Assay Remarks: Cell-Based Assay
Condition Description: rat-1
Readout Name: IC50 (µM)
Field: numeric (µM). Do not append units.

{"Compound Structure": "CC1(n2c([C@@H]3CCCN3c3nc(N)nc4[nH]cnc34)nc3cccc(Cl)c3c2=O)CC1", "Readout Value": 3.3}
{"Compound Structure": "N#Cc1c(N)ncnc1N1CSC[C@H]1c1nc2cccc(Cl)c2c(=O)n1-c1ccccc1", "Readout Value": 8.12}
{"Compound Structure": "CN(C)n1c([C@@H]2CCCN2c2ncnc3[nH]cnc23)nc2cccc(Cl)c2c1=O", "Readout Value": 7.68}
{"Compound Structure": "Cc1nc(N)nc(N2C[C@@H](F)C[C@H]2c2nc3cccc(C(F)(F)F)c3c(=O)n2-c2cccnc2)c1C#N", "Readout Value": 4.2}
{"Compound Structure": "O=c1c2c(Cl)cccc2nc([C@@H]2CCON2c2ncnc3scnc23)n1-c1ccccc1", "Readout Value": 5.99}

Please examine the following record next.
Need IC50 of Cc1nc(N)nc(N2C[C@@H](F)C[C@H]2c2nc3cccc(C(F)(F)F)c3c(=O)n2-c2cccc(F)c2)c1C#N , thanks.
3.41

###

Measured On: PIK3CD (Human)
Assay Remarks: Cell-Based Assay
Condition Description: rat-1
Readout Name: pIC50
Field pIC50 (float): negative decimal logarithm of the concentration in molar.

Some compounds with known pIC50 results, for comparison:
{"Compound Structure": "CO[C@H]1C[C@@H](c2nc3cccc(Cl)c3c(=O)n2-c2ccccc2)N(c2ncnc(N)c2C#N)C1", "Readout Value": 8.00}
{"Compound Structure": "N#Cc1c(N)ncnc1N1CCC[C@H]1c1nc2cccc(Cl)c2c(=O)n1-c1ccccc1", "Readout Value": 8.15}
{"Compound Structure": "Cc1c(F)ccc2nc([C@@H]3C[C@H](O)CN3c3ncnc(N)c3C#N)n(-c3ccccc3)c(=O)c12", "Readout Value": 8.15}
{"Compound Structure": "Cc1nc(N)nc(N2CCC[C@H]2c2nc3cccc(C(F)(F)F)c3c(=O)n2-c2cccnc2)c1C#N", "Readout Value": 7.57}
{"Compound Structure": "N#Cc1c(N)ncnc1N1CCC[C@H]1c1nc2cccc(C(F)(F)F)c2c(=O)n1-c1ccccc1", "Readout Value": 7.21}
{"Compound Structure": "Cc1nc(N)nc(N2CCC[C@H]2c2nc3cccc(C(F)(F)F)c3c(=O)n2-c2cccc(F)c2)c1C#N", "Readout Value": 7.43}
{"Compound Structure": "N#Cc1c(N)ncnc1N1CCC[C@H]1c1nc2cccc(Cl)c2c(=O)n1N1CCCCC1", "Readout Value": 6.56}
{"Compound Structure": "CN(C)n1c([C@@H]2CCCN2c2ncnc(N)c2C#N)nc2cccc(Cl)c2c1=O", "Readout Value": 7.59}

Entry under review: O=c1c2c(Cl)cccc2nc([C@@H]2CCCN2c2ncnc3[nH]cnc23)n1N1CCCCC1 . Reported pIC50?
6.70

###

Entries and their IC50
Measured On: PIK3CG (human) (UniProt P48736)
Sequence (P48736 whole entry, looked up): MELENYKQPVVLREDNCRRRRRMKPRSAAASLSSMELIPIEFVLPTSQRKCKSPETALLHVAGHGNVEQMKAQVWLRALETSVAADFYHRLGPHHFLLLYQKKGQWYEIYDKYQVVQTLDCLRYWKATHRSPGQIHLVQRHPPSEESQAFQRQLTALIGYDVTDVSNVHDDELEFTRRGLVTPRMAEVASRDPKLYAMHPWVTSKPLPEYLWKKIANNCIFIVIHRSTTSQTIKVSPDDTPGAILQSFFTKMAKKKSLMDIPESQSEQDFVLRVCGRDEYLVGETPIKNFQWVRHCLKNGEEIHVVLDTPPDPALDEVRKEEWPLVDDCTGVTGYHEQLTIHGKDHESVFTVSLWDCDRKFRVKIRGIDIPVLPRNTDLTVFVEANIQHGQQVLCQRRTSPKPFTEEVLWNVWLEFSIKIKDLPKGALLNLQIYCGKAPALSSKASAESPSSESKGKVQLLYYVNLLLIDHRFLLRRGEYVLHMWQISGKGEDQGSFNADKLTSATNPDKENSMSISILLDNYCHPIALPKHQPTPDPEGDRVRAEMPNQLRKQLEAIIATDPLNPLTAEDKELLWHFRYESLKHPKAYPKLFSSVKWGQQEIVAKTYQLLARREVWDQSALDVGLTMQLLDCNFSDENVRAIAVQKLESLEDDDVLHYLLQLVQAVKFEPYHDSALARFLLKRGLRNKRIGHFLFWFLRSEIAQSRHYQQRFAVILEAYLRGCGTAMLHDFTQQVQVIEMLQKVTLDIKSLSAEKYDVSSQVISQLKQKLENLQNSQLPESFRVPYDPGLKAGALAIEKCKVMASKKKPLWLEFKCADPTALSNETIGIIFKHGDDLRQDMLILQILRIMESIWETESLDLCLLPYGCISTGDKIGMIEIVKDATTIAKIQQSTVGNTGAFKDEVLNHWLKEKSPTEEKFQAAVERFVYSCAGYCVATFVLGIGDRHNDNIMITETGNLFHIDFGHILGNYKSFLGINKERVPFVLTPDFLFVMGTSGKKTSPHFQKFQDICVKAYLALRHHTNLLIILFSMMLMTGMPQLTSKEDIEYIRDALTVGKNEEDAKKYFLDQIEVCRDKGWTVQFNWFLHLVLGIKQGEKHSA
Assay Remarks: Enzyme Assay

Consider the worked cases shown below.
{"Compound Structure": "Cc1nc(N)c(C#N)c(N2CCC[C@H]2c2nc3cccc(C(F)(F)F)c3c(=O)n2-c2ccccc2)n1", "Readout Value": "> 10 µM"}
{"Compound Structure": "N#Cc1c(N)ncnc1N1CCC[C@H]1c1nc2cc(F)cc(F)c2c(=O)n1-c1ccccc1", "Readout Value": "> 10 µM"}

Attention now turns to another entry.
State the recorded IC50 for this entry: Cn1nccc1-n1c([C@@H]2CSCN2c2ncnc(N)c2C#N)nc2cccc(Cl)c2c1=O
> 10 µM

###

Listed compounds paired with reported log10(IC50)
Measured On: PIK3CG (human)
Assay Remarks: Enzyme Assay
Each number you see is log10 of IC50, and the unit inside the log is µM.

{"Compound Structure": "O=c1c2c(Cl)cccc2nc([C@@H]2CCCN2c2ncnc3[nH]cnc23)n1C1CCCCC1", "Readout Value": -0.77}

Short answer please: log10(IC50), PIK3CG (human), entry CS(=O)(=O)N1CC[C@H](n2c([C@@H]3CCCN3c3ncnc4[nH]cnc34)nc3cccc(Cl)c3c2=O)C1
-0.43

Identify the measured log10(IC50) of Cc1nc(N)nc(N2CCC[C@H]2c2nc3cccc(Cl)c3c(=O)n2C2CC2)c1C#N for PIK3CG (human).
-0.96

Please state recorded log10(IC50) (tested on PIK3CG (human)) of Cc1ccccc1-n1c([C@@H]2CCCN2c2ncnc(N)c2C#N)nc2cccc(Cl)c2c1=O
-1.15

What measured log10(IC50) is associated with Nc1nc(N2CCC[C@H]2c2nc3cccc(C(F)(F)F)c3c(=O)n2-c2ccccc2)c2ncsc2n1 on PIK3CG (human)?
-1.06

Value wanted: log10(IC50) (PIK3CG (human)) of entry O=c1c2c(Cl)cccc2nc([C@@H]2C[C@H](OC(F)F)CN2c2ncnc3[nH]cnc23)n1-c1ccccc1
-1.47

###

Measured On: PIK3CD (Human)
Assay Remarks: Enzyme Assay
Cut-off 40 nM on IC50: below means Yes, at or above means No.

{"Compound Structure": "Cc1nc(N)nc(N2CCC[C@H]2c2nc3cccc(OC(F)F)c3c(=O)n2-c2ccccc2)c1C#N", "Label Value": "Yes"}
{"Compound Structure": "Nc1nc(N2C[C@@H](O)C[C@H]2c2nc3cccc(C(F)(F)F)c3c(=O)n2-c2ccccc2)c2ncsc2n1", "Label Value": "Yes"}
{"Compound Structure": "Cn1nccc1-n1c([C@@H]2CSCN2c2ncnc3[nH]cnc23)nc2cccc(Cl)c2c1=O", "Label Value": "No"}

Say whether its IC50 is strictly beneath 40 nM. Entry: N#Cc1cnc(N)nc1N1CCC[C@H]1c1nc2cccc(C(F)(F)F)c2c(=O)n1-c1ccccc1
Yes

Find out if reported IC50 for Cc1nc(N)nc(N2CCC[C@H]2c2nc3ccc(F)c(S(C)(=O)=O)c3c(=O)n2-c2ccccc2)c1C#N is less than 40 nM
Yes

Please check: IC50 for O=c1c2c(Cl)cccc2nc([C@@H]2CCON2c2ncnc3[nH]cnc23)n1-c1ccccc1 , strictly under 40 nM or not?
No

Field: below-cutoff. Rule: recorded IC50 strictly less than 40 nM. Subject: Nc1nc(N2CCC[C@H]2c2nc3cccc(Cl)c3c(=O)n2-c2ccccc2)c2ncsc2n1
Yes

Input N#Cc1c(N)ncnc1N1CSC[C@H]1c1nc2cccc(Cl)c2c(=O)n1-c1ccccc1 ; condition: IC50 strictly below 40 nM. Does it hold?
Yes

Confirm or reject: IC50 of Cc1nc(N)nc(N2C[C@@H](O)C[C@H]2c2nc3ccc(F)c(C4CC4)c3c(=O)n2-c2ccccc2)c1C#N lies strictly below 40 nM
Yes

###

Measured On: PIK3CD (Human)
Assay Remarks: Enzyme Assay
Doc: threshold 0.04 µM (exclusive). Items with IC50 beneath it return Condition met; others return Condition not met.

Use the examples below as a reference point.
{"Compound Structure": "CC1(n2c([C@@H]3CCCN3c3ncnc(N)c3C#N)nc3cccc(Cl)c3c2=O)CC1", "Label Value": "Condition met"}
{"Compound Structure": "Cc1nc(N)nc(N2CCC[C@H]2c2nc3cccc(Cl)c3c(=O)n2-c2ccccc2)c1C#N", "Label Value": "Condition met"}
{"Compound Structure": "Nc1nc(N2CCC[C@H]2c2nc3cccc(Cl)c3c(=O)n2C2CC2)c2nc[nH]c2n1", "Label Value": "Condition not met"}
{"Compound Structure": "O=c1c2c(Cl)cccc2nc([C@@H]2CCCN2c2ncnc3[nH]cnc23)n1N1CCOCC1", "Label Value": "Condition met"}
{"Compound Structure": "Nc1nc(N2CCC[C@H]2c2nc3cccc(C(F)(F)F)c3c(=O)n2-c2ccccc2)c2ncsc2n1", "Label Value": "Condition not met"}
{"Compound Structure": "CO[C@H]1C[C@@H](c2nc3cccc(Cl)c3c(=O)n2-c2ccccc2)N(c2nc(N)nc(C)c2C#N)C1", "Label Value": "Condition not met"}

# evaluate next
Consider the compound Cc1nc(N)nc(N2CCC[C@H]2c2nc3ccc(F)c(C(F)(F)F)c3c(=O)n2-c2ccccc2)c1C#N . Is its IC50 strictly less than 0.04 µM?
Condition met

###

# Lookup of reported IC50 keyed by entry
Measured On: PIK3CA (human) (UniProt P42336)
Assay Remarks: Cell-Based Assay
Condition Description: rat-1

Consider the following illustrative entries.
{"Compound Structure": "COC(=O)N1CC[C@@H](n2c([C@@H]3CCCN3c3ncnc4[nH]cnc34)nc3cccc(Cl)c3c2=O)C1", "Measured On": "PIK3CA (human) (UniProt P42336)", "Readout Value": "> 10 µM"}
{"Compound Structure": "CS(=O)(=O)c1c(F)ccc2nc([C@@H]3CCCN3c3ncnc(N)c3C#N)n(-c3ccccc3)c(=O)c12", "Measured On": "PIK3CA (human) (UniProt P42336)", "Readout Value": "> 10 µM"}

Now look at this one.
What value of measured IC50 is listed for Cn1cnc2c(N3CCC[C@H]3c3nc4cccc(Cl)c4c(=O)n3-c3ccccc3)nc(N)nc21 ?
> 10 µM
